Would you kindly list melting point for each of these compounds?

Supply recorded melting point for Cc1cc(CN2N=C(C(F)(F)C(F)(F)F)NC2(O)c2ccc(Cl)cc2)ccc1[N+](=O)[O-] (stereo not drawn) here.
90 to 92 °C

Supply recorded melting point for CC(C)(C)OC(=O)N1CCN(c2ccc(Oc3cc(Cl)ccc3[N+](=O)[O-])cc2)CC1 here.
124 to 125 °C

Supply recorded melting point for C=CCNc1nc(NC23CC4CC(CC(C4)C2)C3)c2scc(C)c2n1 here.
107 to 109 °C

Supply recorded melting point for N#CCc1ccccc1-c1ccc(C(=O)N2Cc3ccc(C(=O)NCc4cccnc4)n3Cc3ccccc32)cc1 here.
105 to 108 °C

Supply recorded melting point for CC(C)(C)OC(=O)N1CCN(c2cccc(Cl)c2/C=N/NS(=O)(=O)c2ccccc2)CC1 here.
162 to 165 °C

Supply recorded melting point for O=C1CCCc2onc(-c3ccccc3[N+](=O)[O-])c21 here.
125 to 127 °C

Supply recorded melting point for CCn1cc(CN(C(=O)C2CCCc3cc(OCc4ccccc4)ccc32)c2ccc(C(C)C)cc2)cn1 (stereo not drawn) here.
122 to 124 °C

Supply recorded melting point for C=C(C)c1nc(CCC)n(Cc2ccc(-c3ccccc3C(=O)C(=O)O)cc2)c1C(=O)O here.
150 to 151 °C

Supply recorded melting point for O=C(O)c1cc(N=Nc2cc(C(=O)O)cc(SCc3ccccc3)c2C(=O)c2ccccc2)c(C(=O)c2ccccc2)c(SCc2ccccc2)c1 here.
218 to 220 °C

Supply recorded melting point for Cc1cccc(Nc2ccccc2C(=O)OCC(=O)N(C)C)c1C here.
85 to 86 °C

Supply recorded melting point for CCOc1c(C)c(C)c(O)c(CNCCOc2cc(C)ccc2C(C)C)c1C here.
99 to 101 °C

Supply recorded melting point for CCCn1cccc1C(N)=S here.
88 to 91 °C

Supply recorded melting point for Cc1ccccc1C(Oc1cc(OCc2ccc3ncoc3c2)ccc1C#N)C(=O)O (racemic) here.
172 to 178 °C

Supply recorded melting point for CC(C)Sc1nc(-c2ccc(F)cc2)c(-c2ccncc2)[nH]1 here.
263 to 264 °C

Supply recorded melting point for C=C(C(=O)c1ccc(C(=O)OC)cc1)c1cc(OC)c(OC)c(-c2cccs2)c1 here.
102 to 103 °C

Supply recorded melting point for O=C(O)/C=C/c1ccc(OCc2cccnc2)cc1 here.
228 to 230 °C

Supply recorded melting point for COC(=O)NCC1CN(c2ccc(-n3cnc(Cn4cccn4)c3)c(F)c2)C(=O)O1 (stereo not drawn) here.
130 °C

Supply recorded melting point for O[C@H]1COC(c2cc3ccccc3[nH]2)=N[C@@H]1c1ccccc1 (racemic) here.
204 °C

###

Would you kindly list melting point for each of these compounds?

Supply recorded melting point for O=C(O)c1cccc(-c2cccc(OCCc3ccc(Cl)cc3Cl)n2)c1 here.
199 to 200 °C

Supply recorded melting point for Cc1cc(CCCCCCC(OS(=O)(=O)O)c2nnnn2C)on1 (stereo unspecified) here.
58 to 60 °C

Supply recorded melting point for CC[C@H]1c2cccn2-c2cc(F)c(F)cc2N1S(=O)(=O)c1ccc(O)c(C)c1 here.
161 to 163 °C

Supply recorded melting point for N#CN=C(Nc1cccnc1)NC1CCCCC1 here.
185 to 186 °C

Supply recorded melting point for Cc1cnc(C)c(N(CCN(C)C)C(=O)N(C)C)n1 here.
96 to 98 °C

Supply recorded melting point for COc1cc(OC)c(-c2ccc(C(=O)O)s2)cc1/C=C/C(=O)c1ccc(C(=O)O)cc1 here.
> 260 °C

###

MEASURE: melting point

Supply recorded melting point for COc1ccc(C(=O)Nc2ccccc2)cc1N(S(=O)(=O)c1cc(Cl)cc(Cl)c1)S(=O)(=O)c1cc(Cl)cc(Cl)c1 here.
228 to 231 °C

Supply recorded melting point for C=CCN1C2CCC3C1CCC2N3C(c1ccc(C(=O)N2CCCCC2)cc1)c1cccc(OC)c1 (stereo not given) here.
94 to 96 °C

Supply recorded melting point for Cc1c(O)c(Cl)cc(Cl)c1C(=O)O here.
135 °C

Supply recorded melting point for Cc1cc(-c2nc3cccnn3c2-c2ccnc(NC(=O)c3ccccc3C)c2)ccc1F here.
265 to 266 °C

Supply recorded melting point for CN(CC#CI)c1nc(CO)cs1 here.
118 to 119 °C

Supply recorded melting point for CSC1=Nc2ccc(Cl)cc2C(=O)N(C)C1 here.
124 to 127 °C

Supply recorded melting point for C#CCOc1cc(-n2nc3ccc(Cl)cn3c2=O)c(F)cc1C#N here.
209 to 211 °C

Supply recorded melting point for Cc1c(C)c2c(c(C)c1NCc1ccc(F)cc1)C(c1ccc(F)cc1)C(C)(C)O2 (stereo not given) here.
118 to 120 °C

Supply recorded melting point for O=S(=O)(CC(F)(F)F)c1nc2cc(Cl)c(Cl)cc2[nH]1 here.
190 to 192 °C

Supply recorded melting point for CC(=O)NC1(c2ccc(CN3CCN(c4ccc(F)cc4F)CC3)cc2)CC1 here.
124 to 125 °C

###

MEASURE: melting point

Supply recorded melting point for CC(=O)OC1CSC(Oc2cccc(-c3ncccc3F)c2)C(OC(C)=O)C1OC(C)=O (stereo not given) here.
51 °C

Supply recorded melting point for CN1CC(CNC(=S)NC(=O)c2ccccc2)CC2c3cccc4[nH]cc(c34)CC21 (stereo not given) here.
153 to 155 °C

Supply recorded melting point for COc1ccc2c(c1)C(C(=O)Nc1ccc(C(C)C)cc1)CCC2 (stereo not given) here.
168 to 169 °C

Supply recorded melting point for c1ccc(Cn2ccc3nnc4ccccc4c32)cc1 here.
190 to 192 °C

Supply recorded melting point for Cc1cccc2c1C=Cc1ccccc1C2(O)CCCN(C)C (stereo not given) here.
141 to 143 °C

###

Would you kindly list melting point for each of these compounds?

Supply recorded melting point for CCCCOC(=O)c1ccc(NCc2cc(Br)ccc2OCc2ccccc2)nn1 here.
133 to 135 °C

Supply recorded melting point for O=C(Nc1ccc(-n2nc(C3CC3)cc2C2CC2)cc1)c1ccncc1F here.
135 to 139 °C

Supply recorded melting point for Nc1ccc(Cl)cc1C(O)(C#CC1CC1)C(F)(F)F (centres undefined) here.
141 to 143 °C

Supply recorded melting point for CC(=O)OCC(=O)C1C(C)CC2C3CC(Cl)C4=CC(=O)C=CC4(C)C3=CCC21C (centres undefined) here.
181 °C

Supply recorded melting point for Nc1cc(Br)cnc1CCCCNC1=NS(=O)N=C1NCc1ccncc1 (centres undefined) here.
63 to 66 °C

Supply recorded melting point for Cc1cc(C#N)cc(C(=O)Nc2ccc(Cl)cn2)n1 here.
234 °C

Supply recorded melting point for COc1ccc(CNc2nnc(N3CCC(O)C3)c3ccc(Cl)cc23)cc1Cl (centres undefined) here.
191 to 193 °C

Supply recorded melting point for O=C(NNS(=O)(=O)c1ccccc1)c1cc2ccccc2o1 here.
164 to 167 °C

Supply recorded melting point for NC(=O)c1ccc(OCCNCC(O)COc2nccnc2Cl)cc1 (centres undefined) here.
134 to 135 °C

Supply recorded melting point for CC(C)(C)c1cc(OCc2ccccc2C#N)cc(C(C)(C)C)c1O here.
117 to 119 °C

Supply recorded melting point for C1=Cn2cnnc2Cc2ccccc21 here.
157 to 158 °C

Supply recorded melting point for Cc1cccc(Nc2cc(Nc3ccc(OCC(=O)N(C)C)c(Cl)c3)ncn2)c1 here.
190 to 193 °C

Supply recorded melting point for Cc1ccc(-c2nn(CCCO)c(N)c2C(N)=O)cc1 here.
164 to 165 °C

Supply recorded melting point for Cc1c(NC(=O)c2ccc(OCc3ccccc3)cc2F)ccc2cc(CN3CCCCC3)cnc12 here.
180 to 181 °C

Supply recorded melting point for CC1=NN=C(C=Cc2ccc(C#N)cc2)c2cc3c(cc2C1)OCO3 here.
198 to 202 °C

Supply recorded melting point for CCCCCS(=O)(=O)NC(=O)/C=C/c1ccc(OCC(COC(C)C)OC(C)=O)cc1Oc1ncc(C(F)(F)F)cc1Cl (centres undefined) here.
101 to 103 °C

Supply recorded melting point for O=C(NCCc1c2n(c3ccc(O)nc13)CCCC2)c1ccco1 here.
270 °C

Supply recorded melting point for O=C(NO)c1ccc(CNC(=O)c2[nH]c(-c3ccccc3)cc2-c2ccc(Cl)c(Cl)c2)cc1 here.
187 to 188 °C

Supply recorded melting point for NC1=C([C@H]2CC[C@H](c3ccc(Cl)cc3)CC2)C(=O)c2ccccc2C1=O here.
210 to 215 °C

Supply recorded melting point for O=C(O)C1(CSc2ccc3oc(-c4ccncc4)cc3c2)CCOCC1 here.
227 °C

Supply recorded melting point for CCC(=O)NS(=O)(=O)c1ccc2c3c(cc([N+](=O)[O-])c2c1)NCC3CCl (centres undefined) here.
173 to 177 °C

Supply recorded melting point for CCCCCCCCNc1c(Nc2ccc(CC(C)NC[C@H](O)COc3ccc(O)cc3)cc2)c(=O)c1=O (some centres undefined) here.
122 to 127 °C

Supply recorded melting point for COC(=O)c1ccc(CNc2ccc3c(c2)C(C)(C)CCC3(C)C)cc1 here.
104 to 107 °C

Supply recorded melting point for Clc1ccc(/C=C/c2ccc[nH]2)cc1 here.
172 °C

Supply recorded melting point for CCCn1nc2c(N)nc3ccccc3c2c1CCN(C(N)=O)c1ccc(F)c(F)c1 here.
211 to 212 °C

Supply recorded melting point for CN(C)c1cc(N)c(C(=O)O)cc1[N+](=O)[O-] here.
240 to 250 °C

Supply recorded melting point for CC1(C)OCC(NC(=O)c2ccc([N+](=O)[O-])cc2)CO1 here.
211 °C

Supply recorded melting point for Clc1nc2cc3ccccc3cc2nc1Cl here.
239 to 242 °C

Supply recorded melting point for CC(C)C(=O)N1CCC(c2nc3cc(-c4ccc(C(N)=O)c(F)c4)ccc3o2)CC1 here.
193 to 196 °C

Supply recorded melting point for Cc1ccc(-c2nc(Cl)cc(N3CCN(CCO)CC3)n2)cc1 here.
104 °C

Supply recorded melting point for Cc1ccc(S(=O)(=O)O[C@H](C)C(=O)N2C(=O)N(C)C[C@H]2C(=O)OC(C)(C)C)cc1 here.
78 to 80 °C

Supply recorded melting point for CN(C)c1ccc(C2(c3ccc(N(C)C)cc3N(C)C)OC(=O)c3ccc(N(C)C)cc32)c(N(C)C)c1 here.
188 to 192 °C

Supply recorded melting point for O=C1c2cc([N+](=O)[O-])cc([N+](=O)[O-])c2OC12CC2 here.
158 to 161 °C

Supply recorded melting point for CCCCCCCCCCCCc1ccccc1C(Sc1ncc(C(=O)O)n1C)C(O)CCC(=O)O (centres undefined) here.
79 to 80 °C

Supply recorded melting point for CS(=O)(=O)N(c1cccc(C(=O)NCc2nc[nH]n2)c1)C1CN(C(c2ccc(Cl)cc2)c2ccc(Cl)cc2)C1 here.
210 °C

Supply recorded melting point for CCOC(=O)c1c(Cn2cncn2)nc2sc(C)c(C)c2c1-c1ccc(Cl)cc1 here.
144 to 145 °C

Supply recorded melting point for c1ccc(-c2cc(NC3=NCCN3)n(-c3ccccc3)n2)cc1 here.
228 to 230 °C

Supply recorded melting point for CC(C)=CCn1ncc(-c2ccc(S(C)(=O)=O)cc2)c(-c2ccc(F)cc2)c1=O here.
169 to 172 °C

Supply recorded melting point for Fc1ccc(Cl)c2oc(CCC#Cc3ccccn3)nc12 here.
102 to 103 °C
